meta.source: paper PMC4203401

Molecular target: UniProt P04585
pIC50: −log10 of the molar value.
metric: pIC50

INSERT INTO results (compound, result) VALUES
  ('O=C(O)/C(O)=C/C(=O)c1cn(Cc2ccc(F)cc2)c2cc(N3CCN(CCCCl)CC3)ccc2c1=O [Compound 12i]', '> 7.00');

// next item, pIC50 requested
For this compound ( O=C(O)/C(O)=C/C(=O)c1cn(Cc2ccc(F)cc2)c2cc(N3CCOCC3)ccc2c1=O [Compound 12f] ), measured pIC50 is > 7.00
